- Test system: Saccharomyces cerevisiae
- method_summary: protein stability index of tFT-peptide fusion (C-terminal peptide) (PSI (0-1 scale)); higher = more stable (slower turnover)
- condition_notes: genetic background: wild type; temperature: 30 C
experimental_endpoint: protein stability index

>  <entry_sequence>
LFRLFFVKACRF

>  <experimental_endpoint>
protein stability index

>  <value_reported>
0.516

$$$$
>  <entry_sequence>
PSVRCVVACFIN

>  <experimental_endpoint>
protein stability index

>  <value_reported>
0.277

$$$$
>  <entry_sequence>
GSHRSTWGLVPL

>  <experimental_endpoint>
protein stability index

>  <value_reported>
0.696

$$$$
>  <entry_sequence>
TRQGDLYYYLYV

>  <experimental_endpoint>
protein stability index

>  <value_reported>
0.67

$$$$
>  <entry_sequence>
YFNNVFQVAGGF

>  <experimental_endpoint>
protein stability index

>  <value_reported>
0.639

$$$$
>  <entry_sequence>
SRVHHLWAILVP

>  <experimental_endpoint>
protein stability index

>  <value_reported>
0.345

$$$$
>  <entry_sequence>
GGGGSGRRIGCR

>  <experimental_endpoint>
protein stability index

>  <value_reported>
0.696

$$$$
>  <entry_sequence>
SLSIFLRDALGF

>  <experimental_endpoint>
protein stability index

>  <value_reported>
0.74

$$$$
>  <entry_sequence>
SRFSPSLPPFLP

>  <experimental_endpoint>
protein stability index

>  <value_reported>
0.661

$$$$
>  <entry_sequence>
PPSRDSHPPPPP

>  <experimental_endpoint>
protein stability index

>  <value_reported>
0.627

$$$$
>  <entry_sequence>
PFPPPSTPASLY

>  <experimental_endpoint>
protein stability index

>  <value_reported>
0.772

$$$$
>  <entry_sequence>
PPTAPCPPPLPP

>  <experimental_endpoint>
protein stability index

>  <value_reported>
0.645

$$$$
>  <entry_sequence>
RLGARGGSRGRP

>  <experimental_endpoint>
protein stability index

>  <value_reported>
0.736

$$$$
>  <entry_sequence>
LTPYLYPQPSSP

>  <experimental_endpoint>
protein stability index

>  <value_reported>
0.673

$$$$
>  <entry_sequence>
DGWSEAGQGGKG

>  <experimental_endpoint>
protein stability index

>  <value_reported>
0.679

$$$$
>  <entry_sequence>
SYTIPPSTYLPS

>  <experimental_endpoint>
protein stability index

>  <value_reported>
0.704

$$$$
>  <entry_sequence>
AVGRGGVGAEGA

>  <experimental_endpoint>
protein stability index

>  <value_reported>
0.65

$$$$
>  <entry_sequence>
GMDGWGWGGSVV

>  <experimental_endpoint>
protein stability index

>  <value_reported>
0.706

$$$$
>  <entry_sequence>
PFFSPLPPSPPP

>  <experimental_endpoint>
protein stability index

>  <value_reported>
0.767

$$$$

---

- Test system: Saccharomyces cerevisiae;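 further: PSI is a weighted mean of sequencing reads over stability bins, variants kept only with over 10 reads, mCherry proximal and sfGFP distal, peptide attached via GGGS linker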
- method_summary: protein stability index of tFT-peptide fusion (C-terminal peptide) (PSI (0-1 scale)); higher = more stable (slower turnover)
- condition_notes: genetic background: wild type; temperature: 30 C

>  <entry_sequence>
GLGEDVGLGLGW

>  <protein stability index>
0.669

$$$$
>  <entry_sequence>
FSSTCLSSRFAI

>  <protein stability index>
0.684

$$$$
>  <entry_sequence>
GGGGGVGVEGEP

>  <protein stability index>
0.723

$$$$
>  <entry_sequence>
GGGEVLFHLRRA

>  <protein stability index>
0.673

$$$$
>  <entry_sequence>
DLGWGRWYVVVG

>  <protein stability index>
0.678

$$$$
>  <entry_sequence>
SSSDPYLLFCHS

>  <protein stability index>
0.741

$$$$
>  <entry_sequence>
ARRCRPVFRHAI

>  <protein stability index>
0.639

$$$$
>  <entry_sequence>
VSVVGDVWGYGG

>  <protein stability index>
0.753

$$$$
>  <entry_sequence>
AGAEHRERVGQS

>  <protein stability index>
0.896

$$$$
>  <entry_sequence>
VASWNSDKTKND

>  <protein stability index>
0.752

$$$$
>  <entry_sequence>
ALPTLALPPCRS

>  <protein stability index>
0.73

$$$$
>  <entry_sequence>
VLVVTAFTFSCP

>  <protein stability index>
0.324

$$$$
>  <entry_sequence>
FLTSFVDLCGFY

>  <protein stability index>
0.682

$$$$
>  <entry_sequence>
EGRRAGRVGTQV

>  <protein stability index>
0.688

$$$$
>  <entry_sequence>
PTRPAMILPNRY

>  <protein stability index>
0.698

$$$$
>  <entry_sequence>
VRQCSSGFRGAF

>  <protein stability index>
0.674

$$$$
>  <entry_sequence>
LDTVVNGAIPIL

>  <protein stability index>
0.699

$$$$
>  <entry_sequence>
PEMELEKRNQHN

>  <protein stability index>
0.716

$$$$
>  <entry_sequence>
LWCWVGGALCGG

>  <protein stability index>
0.742

$$$$
